Reported Dosage values for a set of compounds
# Test system: Mus musculus
# TEST DETAILS: Maximum soluble dosage which induces toxicity in mice when administered intraperitoneally was determined
# Assay type: organism-based
# MEASUREMENT CONDITIONS: in vivo, ip
Just the number please, in mg/kg, no unit attached.

{"COMPOUND": "CCCCCCn1cnc2c(SN)ncnc21", "READING UNIT": "mg/kg", "Dosage": 410}
{"COMPOUND": "CSc1nc(N)nc2c1ncn2[C@H]1C[C@H](O)[C@@H](CO)O1", "READING UNIT": "mg/kg", "Dosage": 800}
{"COMPOUND": "CCCCCn1cnc2c([S+](N)[O-])nc(N)nc21 (centres undefined)", "READING UNIT": "mg/kg", "Dosage": 106}

Query compound follows.
Input: Output reported Dosage of the compound Nc1nc([S+](N)[O-])c2ncn(C3O[C@H](CO)[C@@H](O)[C@H]3O)c2n1 (some centres undefined) on Mus musculus.
Output: 173
